# Test system: B16
# assay_text: Effect on the survival of mouse B16 melanoma cells was determined at a dose of 10 ug/mL in vitro
# Assay type: functional
# condition_details: read-out: Survival
recorded_metric: viability at 10 µg/mL (%)
Answers are plain numbers, in %.

For each of the compounds below, note its viability at 10 µg/mL.
1. Cc1c(N)nc(C(CC(N)=O)NCC(N)C(N)=O)nc1C(=O)NC(C(=O)NC(C)C(O)C(C)C(=O)NC(C(=O)NCCc1nc(-c2nc(C(=O)NCCC[S+](C)CC(=O)NC(C)C)cs2)cs1)C(C)O)C(O[C@@H]1O[C@H](CO)[C@@H](O)[C@@H](O)C1OC1O[C@@H](CO)C(O)[C@@H](OC(N)=O)[C@@H]1O)c1c[nH]cn1 (some centres undefined)
2. Cc1c(N)nc(C(CC(N)=O)NCC(N)C(N)=O)nc1C(=O)NC(C(=O)NC(C)C(O)C(C)C(=O)NC(C(=O)NCCc1nc(-c2nc(C(=O)NCCC[S+](C)CC(=O)Nc3ccccc3)cs2)cs1)C(C)O)C(O[C@@H]1O[C@@H](CO)[C@@H](O)[C@@H](O)[C@@H]1O[C@H]1O[C@H](CO)[C@@H](O)[C@@H](OC(N)=O)[C@@H]1O)c1c[nH]cn1 (some centres undefined)
3. COc1ccc(NC(=O)C[S+](C)CCCNC(=O)c2csc(-c3csc(CCNC(=O)C(NC(=O)C(C)C(O)C(C)NC(=O)C(NC(=O)c4nc(C(CC(N)=O)NCC(N)C(N)=O)nc(N)c4C)C(O[C@@H]4O[C@@H](CO)[C@@H](O)[C@@H](O)[C@@H]4O[C@H]4O[C@H](CO)[C@@H](O)[C@@H](OC(N)=O)[C@@H]4O)c4c[nH]cn4)C(C)O)n3)n2)cc1 (some centres undefined)
4. Cc1c(N)nc(C(CC(N)=O)NCC(N)C(N)=O)nc1C(=O)NC(C(=O)NC(C)C(O)C(C)C(=O)NC(C(=O)NCCc1nc(-c2nc(C(=O)NCCC[S+](C)CC(=O)Nc3ccc4ccccc4c3)cs2)cs1)C(C)O)C(O[C@@H]1O[C@@H](CO)[C@@H](O)[C@@H](O)[C@@H]1O[C@H]1O[C@H](CO)[C@@H](O)[C@@H](OC(N)=O)[C@@H]1O)c1c[nH]cn1 (some centres undefined)

a:
41
45
40
48
